test system: EKVX NSCLC; test: NCI tumour cell line growth inhibition, 48 h
TGI: recorded values
experimental-endpoint: TGI

[[record]]
compound_structure = "CSc1ccc(/C=C/c2ccnc3ccccc23)cc1"
assayed_target = "EKVX NSCLC"
experimental_endpoint = "TGI"
val = "22.3 µM"

[[record]]
compound_structure = "O=C(OCc1ccc2c(Cl)cc(Cl)c(O)c2n1)c1cc2ccccc2[nH]1"
assayed_target = "EKVX NSCLC"
experimental_endpoint = "TGI"
val = "3 µM"

[[record]]
compound_structure = "CCOC(=O)c1cnc(-n2[nH]c3c(c2=O)CCCC3)[nH]c1=O"
assayed_target = "EKVX NSCLC"
experimental_endpoint = "TGI"
val = "> 100 µM"

[[record]]
compound_structure = "CCCCCCCCCCCCN(O)C(=O)c1ccccc1"
assayed_target = "EKVX NSCLC"
experimental_endpoint = "TGI"
val = "84.2 µM"

[[record]]
compound_structure = "O=C(O)Cn1c(=O)[nH]c(=O)c2c1ncn2Cc1ccccc1"
assayed_target = "EKVX NSCLC"
experimental_endpoint = "TGI"
val = "> 100 µM"

[[record]]
compound_structure = "CCCCC(=O)Oc1ccc2c(C)cc(=O)oc2c1"
assayed_target = "EKVX NSCLC"
experimental_endpoint = "TGI"
val = "> 100 µM"

[[record]]
compound_structure = "CCOC(=O)c1ccc(-n2c(SCC)nc3sc(C)c(C)c3c2=O)cc1"
assayed_target = "EKVX NSCLC"
experimental_endpoint = "TGI"
val = "> 100 µM"

[[record]]
compound_structure = "C[C@]12[C@@H]3CC[C@H]1[C@@H](OC(=O)Nc1cc([N+](=O)[O-])cc([N+](=O)[O-])c1)C(=O)N2CC3"
assayed_target = "EKVX NSCLC"
experimental_endpoint = "TGI"
val = "> 100 µM"

[[record]]
compound_structure = "CC(=O)NNc1nc(C)c(C(/C=C/c2ccc(Cl)cc2)=N/NC(=O)C[N+](C)(C)C)s1"
assayed_target = "EKVX NSCLC"
experimental_endpoint = "TGI"
val = "> 100 µM"

[[record]]
compound_structure = "Cc1nc(Nc2ccc([N+](=O)[O-])cc2)sc1C(/C=C/c1ccc(N(C)C)cc1)=N/NC(=O)c1ccccc1"
assayed_target = "EKVX NSCLC"
experimental_endpoint = "TGI"
val = "> 100 µM"


====

# TGI annotations
system: TK-10 renal; test: NCI tumour cell line growth inhibition, 48 h
experimental-endpoint: TGI (µM)

[[record]]
molecule = "CCCCC(=O)Oc1ccc2c(C)cc(=O)oc2c1"
experimental_endpoint = "TGI"
endpoint_unit = "µM"
censoring_operator = ">"
val = 100

[[record]]
molecule = "c1ccc(Cn2c(-c3ccc(OC[C@H](C4CCNCC4)n4c(-c5ccccc5)nc5ccccc54)cc3)nc3ccccc32)cc1"
experimental_endpoint = "TGI"
endpoint_unit = "µM"
censoring_operator = "="
val = 3.08

[[record]]
molecule = "NC(=O)c1[nH]cnc1/N=N/SCC(N)C(=O)O (stereo not given)"
experimental_endpoint = "TGI"
endpoint_unit = "µM"
censoring_operator = ">"
val = 100

[[record]]
molecule = "c1ccc(-c2nnc(-c3nsc4ccccc34)o2)cc1"
experimental_endpoint = "TGI"
endpoint_unit = "µM"
censoring_operator = ">"
val = 100

[[record]]
molecule = "Cc1cc(C)nc(SC2=C(Nc3cccc(Cl)c3C)C(=O)N(Cc3ccccc3)C2=O)n1"
experimental_endpoint = "TGI"
endpoint_unit = "µM"
censoring_operator = ">"
val = 160

[[record]]
molecule = "N[C@@H]1CCCN(c2c(/C=C3\\SC(=O)NC3=O)cccc2-c2ccccc2)C1"
experimental_endpoint = "TGI"
endpoint_unit = "µM"
censoring_operator = "="
val = 26.8

[[record]]
molecule = "Cn1c2c(c3ccccc31)CC(=S)N1CCCC(CC2O)C1 (stereo not given)"
experimental_endpoint = "TGI"
endpoint_unit = "µM"
censoring_operator = ">"
val = 100

[[record]]
molecule = "COc1cc(-c2cc(=O)c3cc(C)c(C)c(C(=O)O)c3o2)cc(OC)c1OC"
experimental_endpoint = "TGI"
endpoint_unit = "µM"
censoring_operator = ">"
val = 100

[[record]]
molecule = "CCCCCCCCCCCCOC1C(CNC(=O)C2OC3OC(C)(C)OC3C2NC(=O)CN2CCCCCC2)OC2OC(C)(C)OC21 (stereo not given)"
experimental_endpoint = "TGI"
endpoint_unit = "µM"
censoring_operator = "="
val = 22.5

[[record]]
molecule = "CC1=C[S+](c2ccccc2)c2cccc3cc4ccccc4c1c23 (stereo not given)"
experimental_endpoint = "TGI"
endpoint_unit = "µM"
censoring_operator = "="
val = 2.38

